Below is a list of entries, each paired with its recorded Activity value.
# METHOD: Oxytocic potency in rat by uterus assay in presence of 0.5 mM Mg2+
# Type: functional
Starred links: 1 amine or outer side, 2 acyl side, 3 side chain; linkers in the order of their positions; H or OH if unused. Positions of bridges follow the written chain, without caps; N, C: chain ends. Residues, ends and D or L forms follow the SMILES beside them. X1 = O=C([C@H](O)CS[*:2])[*:1]
The response must be a number in U/mg with no trailing unit.

The cases that follow already have their Activity on record.
INSERT INTO measurements (compound, measurement_label, measured) VALUES
  ('CC[C@H](C)[C@@H]1NC(=O)[C@H](Cc2ccc(O)cc2)NC(=O)[C@@H](N)CSSC[C@@H](C(=O)NCC(=O)N[C@@H](CC(C)C)C(=O)NCC(N)=O)NC(=O)[C@H](CC(N)=O)NC(=O)[C@H](CCC(N)=O)NC1=O (H-CYIQNCGLG-NH2; disulfide 1-6)', 'Activity', 965),
  ('CC[C@H](C)[C@@H]1NC(=O)[C@H](Cc2ccc(O)cc2)NC(=O)[C@@H](N)CSSC[C@@H](C(=O)N2CCC[C@H]2C(=O)N[C@@H](CC(C)C)C(=O)NCC(N)=O)NC(=O)[C@H](CC(N)=O)NC(=O)[C@H](CCC(N)=O)NC1=O', 'Activity', 486),
  ('CC[C@H](C)[C@@H]1NC(=O)[C@H](Cc2ccc(O)cc2)NC(=O)[C@H](O)CSSC[C@@H](C(=O)N2CCC[C@H]2C(=O)N[C@@H](CC(C)C)C(=O)NCC(N)=O)NC(=O)[C@H](CC(N)=O)NC(=O)[C@H]([C@@H](C)O)NC1=O (YITNCPLG-NH2; linker N-5 via X1)', 'Activity', 937);

# ---- query compound ----
# Activity (compound: CC[C@H](C)[C@@H]1NC(=O)[C@H](Cc2ccc(O)cc2)NC(=O)[C@@H](N)CSSC[C@@H](C(=O)N2CCC[C@H]2C(=O)N[C@@H](CC(C)C)C(=O)NCC(N)=O)NC(=O)[C@H](CC(N)=O)NC(=O)[C@H]([C@@H](C)O)NC1=O (H-CYITNCPLG-NH2; disulfide 1-6) ) is 719
